Reported values of Internalized bacteria (% control ± SEM), Structural analog for individual entries
Test system: Staphylococcus aureus
Assay: Staphylococcus aureus host cell invasion assay in HUVEC, flow cytometry
Format: cell-based
Conditions: 10 μM in PEG, 18-20 hours prior to infection; HUVEC; fluorescently labeled S. aureus 1 hour
The reply should be a number in % % control, with the unit left off.

Field: example entries. Status: answers known.
> print(dat)
                                   molecule  endpoint.unit  measured.value
1  COc1ccc(C2(C)CC(c3ccccc3)=NN2c2ccc(S(N)(=O)=O)cc2)cc1 (centres unmarked) [RSM 26]    % % control              40
2  COc1ccc(C2=NN(c3ccc(S(N)(=O)=O)cc3)C(c3cc(OC)c(OC)c(OC)c3)C2)cc1 (centres unmarked) [RSM 14]    % % control              71
3  COCCOc1ccc(C2=NN(c3ccc(S(N)(=O)=O)cc3)C(c3ccc(OCCOC)cc3)C2)cc1 (centres unmarked) [RSM 18]    % % control              76

Need Internalized bacteria (% control ± SEM), Structural analog of COc1ccc(C2=NN(c3ccc(S(N)(=O)=O)cc3)C(c3ccc(Cl)cc3)C2)cc1 (centres unmarked) [RSM 04] , thanks.
11

Would you kindly repeat that for COc1cc(C2CC(c3ccccc3)=NN2c2ccc(S(N)(=O)=O)cc2)cc(OC)c1OC (centres unmarked) [RSM 13] ?
62

Now give it for COCCOc1ccc(C2CC(c3ccc(OC)cc3)=NN2c2ccc(S(N)(=O)=O)cc2)cc1 (centres unmarked) [RSM 12] too.
57

Queued: COCCOc1ccc(C2=NN(c3ccc(S(N)(=O)=O)cc3)C(c3ccc(OC)cc3)C2)cc1 (centres unmarked) [RSM 17]
67

Another molecule to check: COCCOc1ccc(C2CC(c3ccccc3)=NN2c2ccc(S(N)(=O)=O)cc2)cc1 (centres unmarked) [RSM 11]
61
